Provenance of the data: PubChem BioAssay (Tox21)

# test protocol: qHTS assay to identify small molecule agonists of the estrogen related receptor (ERR) signaling pathway from Tox21 library (AID 1224849); further: on the % scale 0 is the no-effect control and ±100 the full control effect; nearly all actives have a fitted effect of over 15% in size
# condition summary: ERR reporter cell line, ONE-Glo luciferase, 18 h; at 92.4 µM (top of the series) unless noted
# Procedure: National Center for Advancing Translational Sciences [NCATS] NIH Chemical Genomics Center [NCGC] U.S. Environmental Protection Agency [EPA] National Institutes of Environmental Health Sciences [NIEHS] National Toxicology Program [NTP] […] The ERR cells were dispensed at 2,000 cells/5 ul/well in 1536-well white plates using a Multidrop dispenser. […] After 30-minute incubation at room temperature, the luminescence intensity in the plates was measured using a ViewLux plate reader.
The source made the active and inactive calls. The call rests on the fitted dose curve.
Catalogue of activity change, positive = activation readings, one per entry.

Please supply the value of reported activity change, positive = activation for the item CN1CCN(CC(=O)N2c3ccccc3C(=O)Nc3cccnc32)CC1
-0.263% [at 8.39 µM] (inactive)

Please supply the value of reported activity change, positive = activation for the item CCCCCOC(=O)CCC
10.4% (inactive)

Please supply the value of reported activity change, positive = activation for the item C[Si](C)(C)C
-1.98% (inactive)

Please supply the value of reported activity change, positive = activation for the item CCCCCCCCOS(=O)(=O)O
6.25% (inactive)

====

# system: Cytochrome P450 2D6 (Homo sapiens)
# test protocol: Cytochrome P450 Family 2 Subfamily D Member 6 (CYP2D6) small molecule antagonists: luciferase reporter qHTS assay (AID 1671196); further: nearly all actives have a fitted effect of over 50% in size
# condition summary: P450-Glo CYP2D6 enzyme assay, luciferin luminescence, 1 h; series mostly up to 115 µM
Records with an inconclusive call do not appear. Activity calls are given as the source filed them. Calls follow the shape of the dose curve; as a rule, active = well fitted inhibition curve with a large enough effect in the repeat runs; inconclusive = weak or mixed curves; inactive = no such curve, though single readings can be large or run the other way.
Hi there, use one of these labels in your reply, thanks! Y = active, N = inactive

molecule | system | label
COc1cc(N)ccc1C | Cytochrome P450 2D6 (Homo sapiens) | Y

For C[Si](C)(C)C , which call appears in the assay record?
N

For COc1ccc(Br)c(C)c1 , which call appears in the assay record?
N

====

# system: Cytochrome P450 2C9 (Homo sapiens) (UniProt P11712)
# Sequence (P11712 whole entry, looked up): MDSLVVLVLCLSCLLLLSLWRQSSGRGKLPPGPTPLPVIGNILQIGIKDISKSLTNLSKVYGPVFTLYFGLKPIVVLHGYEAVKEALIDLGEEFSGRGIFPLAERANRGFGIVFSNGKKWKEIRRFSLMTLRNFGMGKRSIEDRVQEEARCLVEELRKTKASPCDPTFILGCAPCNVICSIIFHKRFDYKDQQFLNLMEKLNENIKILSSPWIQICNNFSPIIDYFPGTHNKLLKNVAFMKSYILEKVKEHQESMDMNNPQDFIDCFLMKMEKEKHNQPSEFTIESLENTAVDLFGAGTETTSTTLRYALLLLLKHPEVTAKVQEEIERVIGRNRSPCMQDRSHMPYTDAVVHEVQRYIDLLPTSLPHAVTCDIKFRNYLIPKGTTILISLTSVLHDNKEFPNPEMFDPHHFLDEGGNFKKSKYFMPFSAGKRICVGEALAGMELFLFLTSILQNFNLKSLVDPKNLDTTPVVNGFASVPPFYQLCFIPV
# test protocol: Cytochrome P450 Family 2 Subfamily C Member 9 (CYP2C9) small molecule antagonists: luciferase reporter qHTS assay (AID 1671198); further: nearly all actives have a fitted effect of over 50% in size
# condition summary: P450-Glo CYP2C9 enzyme assay, luciferin luminescence; series mostly up to 115 µM
Results filed as inconclusive are left out. Activity calls are given as the source filed them. Calls follow the shape of the dose curve; as a rule, active = well fitted inhibition curve with a large enough effect in the repeat runs; inconclusive = weak or mixed curves; inactive = no such curve, though single readings can be large or run the other way.
Hi there, use one of these labels in your reply, thanks! active, inactive

Please review the entries below; each comes with its answer.
line notation | system | label
NS(=O)(=O)c1cc2c(cc1Cl)CN(C1CCCCC1)C2=O | Cytochrome P450 2C9 (Homo sapiens) (UniProt P11712) | inactive
O=C(O)CCSSCCC(=O)O | Cytochrome P450 2C9 (Homo sapiens) (UniProt P11712) | inactive
COC(=O)CCCCCCCC(=O)OC | Cytochrome P450 2C9 (Homo sapiens) (UniProt P11712) | inactive
O=S(=O)(O)c1cc(O)c2ccc(Nc3ccccc3)cc2c1 | Cytochrome P450 2C9 (Homo sapiens) (UniProt P11712) | active
COc1cc2c(cc1OC)C(=O)CC2 | Cytochrome P450 2C9 (Homo sapiens) (UniProt P11712) | inactive
Cc1ccccc1N=O | Cytochrome P450 2C9 (Homo sapiens) (UniProt P11712) | inactive
On1nnc2ccccc21 | Cytochrome P450 2C9 (Homo sapiens) (UniProt P11712) | inactive
CCC(CC)CO | Cytochrome P450 2C9 (Homo sapiens) (UniProt P11712) | inactive

For CCCCCCCCCCCCCC , which call appears in the assay record?
inactive

For CN(C)CCOCCO , which call appears in the assay record?
inactive

For BrCCCCCBr , which call appears in the assay record?
inactive
